molecular target: L-lactate dehydrogenase A chain (Homo sapiens); test: Inhibition of human LDH5 using pyruvate as substrate after 10 mins
Assay endpoint: EC50 (nM)
# unit: nM | format: bare number

COc1cccc(CN2CCCCC23CC3)c1OC[C@@H](O)CN1CCOCC1 | 390

Attention now turns to another entry.
Challenge: Given the entry Cc1cccc(OC[C@H](O)CN2CCN(CCN3C(=O)c4cccc5cccc(c45)C3=O)CC2)c1C , report its measured EC50.
Response given: 670

====

test system: MG-63; assay: Antiproliferative activity against human MG63 cells after 72 hrs by MTT assay; format: functional, cell-based; conditions: MG-63, 72 h
Assay endpoint: pIC50
Bear in mind: pIC50 is minus log10 of a mol/L concentration; give just that figure.

COc1cccc(CN2CCCCC23CC3)c1OC[C@@H](O)CN1CCOCC1 | 5.50

Now for a further compound.
Challenge: Item under review: O=C1N[C@](c2ccc(N3CCOCC3)cc2)(c2ccsc2)CC(O)=C1Sc1ccccc1Cl . Reported pIC50?
Response given: 6.18
